Assay: physchem
Details: 37 °C, water, thermodynamic from solid
READOUT LABEL: solubility at 24 h

solubility at 24 h for NC(=O)N1c2ccccc2C=Cc2ccccc21 [Carbamazepine, carbamazepine] is 290 µg/mL
